The reported measurements were obtained from patent US20250243171A1.

Entries and their pEC50 values follow.
Molecular target: Ba/F3 stable cells (Homo sapiens, UniProt P00533, DUP771-773, cells depend on it)
Construct: EC50 Ba/F3-EGFR H773-V774insNPH; other: Ba/F3-EGFR H773-V774insNPH cells, 72 h, CCK-8
Sequence (P00533 with tags, fused parts or gaps DUP771-773): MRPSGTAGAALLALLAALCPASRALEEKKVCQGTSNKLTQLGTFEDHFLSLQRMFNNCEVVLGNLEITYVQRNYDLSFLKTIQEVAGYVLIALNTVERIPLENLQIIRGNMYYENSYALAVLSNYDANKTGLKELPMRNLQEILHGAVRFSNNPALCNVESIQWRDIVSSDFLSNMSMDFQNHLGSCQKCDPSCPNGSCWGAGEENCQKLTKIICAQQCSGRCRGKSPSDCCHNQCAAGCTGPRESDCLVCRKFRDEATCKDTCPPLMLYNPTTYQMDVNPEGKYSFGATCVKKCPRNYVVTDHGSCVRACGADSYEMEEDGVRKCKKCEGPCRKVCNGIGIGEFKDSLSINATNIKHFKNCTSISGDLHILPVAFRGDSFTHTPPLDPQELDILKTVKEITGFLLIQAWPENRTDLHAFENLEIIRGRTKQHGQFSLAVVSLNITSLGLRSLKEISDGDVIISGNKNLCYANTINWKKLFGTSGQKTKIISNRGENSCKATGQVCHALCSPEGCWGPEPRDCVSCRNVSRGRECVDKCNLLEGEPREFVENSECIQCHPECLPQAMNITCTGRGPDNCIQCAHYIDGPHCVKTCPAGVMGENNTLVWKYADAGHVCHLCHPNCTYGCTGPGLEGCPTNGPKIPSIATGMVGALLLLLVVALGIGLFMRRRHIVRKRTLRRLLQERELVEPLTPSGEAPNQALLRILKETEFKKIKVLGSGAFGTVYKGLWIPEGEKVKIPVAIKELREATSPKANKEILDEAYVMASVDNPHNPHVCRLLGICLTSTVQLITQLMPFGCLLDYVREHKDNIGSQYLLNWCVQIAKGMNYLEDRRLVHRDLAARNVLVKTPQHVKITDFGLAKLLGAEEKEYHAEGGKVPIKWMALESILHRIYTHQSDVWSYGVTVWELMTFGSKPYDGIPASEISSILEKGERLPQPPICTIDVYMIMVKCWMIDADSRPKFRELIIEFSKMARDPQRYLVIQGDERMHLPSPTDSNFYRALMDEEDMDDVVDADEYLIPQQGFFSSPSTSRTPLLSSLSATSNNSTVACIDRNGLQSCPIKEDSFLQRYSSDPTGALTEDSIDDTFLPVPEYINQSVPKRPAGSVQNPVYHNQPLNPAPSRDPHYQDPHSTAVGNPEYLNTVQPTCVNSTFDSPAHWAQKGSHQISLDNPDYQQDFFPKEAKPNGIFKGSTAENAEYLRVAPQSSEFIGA
Assay: EC50 assay: Ba/F3 stable cell proliferation (CCK-8, 72 h)
Conditions: Ba/F3-EGFR H773-V774insNPH cells
pEC50: −log10 of the molar value.

// known answers, use as guide
* C=CC(=O)N1CCC(Oc2cc3c(Nc4ccc5ncsc5c4)ncnc3cc2OC)CC1 [Compound 145] | 6.00 to 6.70
* C=CC(=O)N(C)C1CC(Oc2cc3c(Nc4ccc(Cl)c(Cl)c4F)ncnc3cc2OC)C1 (stereo not shown) [Compound 72] | ≥ 6.70
* C=CC(=O)N1CCC(Oc2cc3c(C(=O)c4ccc(Cl)c(Cl)c4F)ncnc3cc2OC)CC1 [Compound 175] | ≥ 6.70

Req: Any idea what pEC50 was measured for C=CC(=O)NC1CC(Oc2cc3c(Nc4cccc5c4CCCC5)ncnc3cc2OC)C1 (stereo not shown) [Compound 89] ?
Resp: < 6.00

---

Biological target: Ba/F3 stable cells (Homo sapiens, UniProt P00533, T790M/L858R, cells depend on it)
Construct: EC50 Ba/F3-EGFR L858R-T790M; other: Ba/F3-EGFR L858R-T790M cells, 72 h, CCK-8
Sequence (P00533 whole entry T790M/L858R): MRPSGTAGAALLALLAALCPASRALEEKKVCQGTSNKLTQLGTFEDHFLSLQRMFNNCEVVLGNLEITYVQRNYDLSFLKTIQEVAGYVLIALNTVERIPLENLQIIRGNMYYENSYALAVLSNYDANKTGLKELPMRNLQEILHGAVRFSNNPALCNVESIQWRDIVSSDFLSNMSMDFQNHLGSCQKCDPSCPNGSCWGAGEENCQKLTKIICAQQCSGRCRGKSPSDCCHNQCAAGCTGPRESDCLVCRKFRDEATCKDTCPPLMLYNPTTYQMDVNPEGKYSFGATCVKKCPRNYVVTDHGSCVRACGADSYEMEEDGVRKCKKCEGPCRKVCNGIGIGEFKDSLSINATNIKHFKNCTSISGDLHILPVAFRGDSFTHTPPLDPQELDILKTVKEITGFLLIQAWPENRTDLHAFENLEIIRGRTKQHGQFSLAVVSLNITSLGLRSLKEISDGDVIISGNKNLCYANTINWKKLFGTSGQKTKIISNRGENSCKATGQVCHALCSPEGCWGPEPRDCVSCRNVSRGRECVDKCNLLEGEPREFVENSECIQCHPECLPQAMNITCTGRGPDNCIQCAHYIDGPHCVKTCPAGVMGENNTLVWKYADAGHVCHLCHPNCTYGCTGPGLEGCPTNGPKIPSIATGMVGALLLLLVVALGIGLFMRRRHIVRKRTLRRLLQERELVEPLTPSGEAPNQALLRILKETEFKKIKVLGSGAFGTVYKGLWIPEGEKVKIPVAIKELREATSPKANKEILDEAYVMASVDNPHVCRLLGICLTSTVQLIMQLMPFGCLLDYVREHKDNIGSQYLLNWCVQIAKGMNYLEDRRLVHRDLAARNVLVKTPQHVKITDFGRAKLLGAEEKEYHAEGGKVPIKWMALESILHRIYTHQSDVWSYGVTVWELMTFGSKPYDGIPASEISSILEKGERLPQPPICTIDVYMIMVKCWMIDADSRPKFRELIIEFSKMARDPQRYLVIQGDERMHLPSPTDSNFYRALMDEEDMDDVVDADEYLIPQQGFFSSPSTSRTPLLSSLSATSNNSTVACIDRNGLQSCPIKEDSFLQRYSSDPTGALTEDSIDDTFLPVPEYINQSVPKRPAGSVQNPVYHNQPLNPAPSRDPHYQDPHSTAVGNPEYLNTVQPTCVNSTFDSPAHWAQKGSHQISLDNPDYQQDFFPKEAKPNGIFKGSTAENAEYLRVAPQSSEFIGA
Test: EC50 assay: Ba/F3 stable cell proliferation (CCK-8, 72 h)
Assay type: cell-based
Conditions: Ba/F3-EGFR L858R-T790M cells
pEC50: −log10 of the molar value.
MEASURED_PARAMETER: pEC50

• C=CC(=O)NC1CC(Oc2cc3c(Nc4cccc(Cl)c4F)ncnc3cc2OC)C1 (centres unmarked) = 6.00 to 6.70
• C=CS(=O)(=O)N1CCC(Oc2c(OC)cc3ncnc4c3c2NC(=O)N4c2ccc(Cl)c(Cl)c2F)CC1 = ≥ 6.70
• C=CC(=O)NC1CC(Oc2cc3c(Nc4ccc(F)c(C#N)c4)ncnc3cc2OC)C1 (centres unmarked) = < 6.00

Req: Could you share which pEC50 value was measured for C=CC(=O)N1CCC(Oc2cc3c(Nc4ccc5sc(C)nc5c4)ncnc3cc2OC)CC1 ?
Resp: 6.00 to 6.70

Req: Can you check C#CC(=O)N1C2CCCC1CC(Oc1cc3c(Nc4ccc5ccccc5c4)ncnc3cc1OC)C2 (centres unmarked) next?
Resp: ≥ 6.70

Req: C=CC(=O)N1CCC(Oc2cc3c(Nc4ccc5cnn(C)c5c4)ncnc3cc2OC)CC1 , same question.
Resp: 6.00 to 6.70

---

Target: Ba/F3 stable cells (Homo sapiens, UniProt P00533, T790M/L858R, cells depend on it)
Construct: EC50 Ba/F3-EGFR L858R-T790M; other: Ba/F3-EGFR L858R-T790M cells, 72 h, CCK-8
Assay: EC50 assay: Ba/F3 stable cell proliferation (CCK-8, 72 h)
Conditions: Ba/F3-EGFR L858R-T790M cells
Method: 4,000 Ba/F3 stable cells/90 μL/well were plated onto 96-well cell culture plate (Grenier, Cat.No. 655180) and incubated at 37° C. with a humidified atmosphere of 5% CO2 for 2 h. Then the cells were treated with 10 μL compounds at serial titration. […] 10 μL the cell proliferation reagent CCK-8 (Dojindo, Cat.No. CK04 1000T) was added into each well and incubated the plate at 37° C. for 4 hours, the GD value was measured by SPECTRAmax plus (Molecular Devices) at 450 nm. […]
pEC50: −log10 of the molar value.
Below, each of the compounds is paired with its reported pEC50 value.

• C=CC(=O)N1CC(c2cc3c(Nc4ccc(Cl)c(Cl)c4F)ncnc3cc2OCCOC)C1 [Compound 17] = ≥ 6.70
• C=CC(=O)N1CCC(Oc2cc3c(NCc4cccc(Cl)c4)ncnc3cc2OC)CC1 [Compound 106] = 6.00 to 6.70
• C=CC(=O)N1CCC(c2cc3c(Nc4ccc(Cl)c(Cl)c4F)ncnc3cc2OC)CC1 [Compound 10] = < 6.00
• C=CC(=O)NC1CC(Oc2cc3c(Nc4ccc(Cl)c(Cl)c4)ncnc3cc2OC)C1 (stereo not shown) [Compound 73] = < 6.00

Req: Which measured pEC50 value corresponds to C=CC(=O)N1C2CCC1CC(Oc1cc3c(Nc4ccc5ccccc5c4)ncnc3cc1OC)C2 (stereo not shown) [Compound 180] ?
Resp: ≥ 6.70

Req: // same read-out, input: COc1cc2ncnc(Nc3ccc(Cl)c(Cl)c3F)c2cc1C1CN(C#N)C1 [Compound 195]
Resp: 6.00 to 6.70

Req: C=CS(=O)(=O)N1CCC=C(c2ccc3ncnc(Nc4ccc(Cl)c(Cl)c4F)c3c2)C1 [Compound 190] ?
Resp: ≥ 6.70

Req: Next record, please: C=CC(=O)NC1CC(Oc2cc3c(Nc4ccc(F)c5c4CCC5O)ncnc3cc2OC)C1 (stereo not shown) [Compound 69]
Resp: < 6.00

Req: Likewise for C=CC(=O)N1CCC(Oc2cc3c(Nc4ccc5ccccc5c4Cl)ncnc3cc2OC)CC1 [Compound 160] ?
Resp: 6.00 to 6.70
